Target: Cytochrome P450 3A4 (Homo sapiens)
Experiment: Cytochrome panel assay with activity outcomes
Details: recombinant CYP, pro-luciferin dealkylation, luminescence, p450-cyp3a4; series mostly up to 57.1 µM
Protocol: The P450 gene superfamily is involved in the metabolism and clearance of xenobiotics. This assay used various human CYP P450 isozymes to measure the dealkylation of various pro-luciferin substrates to luciferin. The luciferin is then measured by luminescence after the addition of a luciferase detection reagent. […] Inhibitors and some substrates limit the production of luciferin, and decrease measured luminescence. […] 8, Detection, 1 sec, ViewLux luminescent read […]
Out of some 16,000 compounds screened, about 5,100 (32%) were called active. Inconclusive results (about 25%) are left out. The call rests on the fitted dose curve; in most records, active means well fitted curve in the direction sought with a large enough effect; inconclusive means small, poorly fitted or top-dose-only effect, or effect the other way; inactive means no such curve, though single readings can be large or run the other way. Some of the results follow.
Respond with a class label; see true (1) = active, false (0) = inactive

Input line: // return assay outcome for "Cn1cc(-c2nc3cnc(Oc4ccccc4)nc3n(Cc3cccs3)c2=O)c2ccccc21"
Output line: false (0)

Input line: // return assay outcome for "CO/N=C(/C)CCC(=O)OC[C@@H]1O[C@H](C#Cc2ccccc2)C=C[C@@H]1Oc1ccc(C)cc1"
Output line: true (1)

Input line: // return assay outcome for "CCn1c(SCC(=O)c2ccc3ccccc3c2)nnc1-c1cccs1"
Output line: true (1)

Input line: // return assay outcome for Cc1cccc(NC(=O)c2cccc(N3C(=O)C4C5CCC(C5)C4C3=O)c2)c1C (stereo unspecified)
Output line: true (1)

Input line: // return assay outcome for "O=C(O)c1cc([N+](=O)[O-])ccc1NCCCc1ccccc1"
Output line: false (0)

Input line: // return assay outcome for "Cc1cccc(NS(=O)(=O)c2c(C)n[nH]c2C)c1"
Output line: true (1)

Input line: // return assay outcome for "COc1ccc(Oc2ncc3nc(C)c(=O)n(Cc4cccs4)c3n2)cc1"
Output line: true (1)

Input line: // return assay outcome for COc1ccc2nc(N3CCCC(C(=O)NCCCN4CCN(C)CC4)C3)sc2c1 (stereo unspecified)
Output line: false (0)

Input line: // return assay outcome for Cc1cccc(-c2nc(CN3CCCC(C(=O)NC4CCCCC4)C3)c(C)o2)c1 (stereo unspecified)
Output line: true (1)

Input line: // return assay outcome for "C=CC[C@@H]1C=C[C@H](Oc2ccc(C)cc2)[C@H](COC(=O)NCc2cccc3ccccc23)O1"
Output line: true (1)

Input line: // return assay outcome for "CCn1c(SCC(=O)c2ccccc2)nnc1-c1cccs1"
Output line: true (1)

Input line: // return assay outcome for "CSc1cccc(NC(=O)c2ccc(Cl)nc2)c1"
Output line: false (0)

Input line: // return assay outcome for "Cc1n[nH]c(C)c1S(=O)(=O)N1CCOCC1"
Output line: false (0)

Input line: // return assay outcome for "COCCNc1nc(-c2ccccc2C(F)(F)F)nc2ccccc12"
Output line: true (1)

Input line: // return assay outcome for "O=C(Nc1cc(Sc2ccccn2)cc([N+](=O)[O-])c1)c1ccc(Cl)cc1"
Output line: true (1)

Input line: // return assay outcome for "Cc1ccc(NC(=O)C2CCN(S(=O)(=O)c3c(C)n[nH]c3C)CC2)nc1"
Output line: false (0)

Input line: // return assay outcome for "COc1cc(/C=N/NC(N)=O)c(Br)cc1OCC(=O)Nc1ccccc1C"
Output line: true (1)

Input line: // return assay outcome for "COc1ccc(S(=O)(=O)Nc2ccc(F)cc2)c(C)c1C"
Output line: true (1)

Input line: // return assay outcome for COc1ccc(NC(=O)CC2C(=O)N(c3cccc(OC)c3)C(=O)N2C2CCCCC2)cc1 (stereo unspecified)
Output line: true (1)

Input line: // return assay outcome for "CN1CCN(c2ncnc3ccc(-c4ccccc4C#N)cc23)CC1"
Output line: true (1)

Input line: // return assay outcome for "COC(=O)C/C=C\[C@@H](C)[C@@H](/C=N\O[C@@H](C)CN1CCCCc2nc(C)c(C)cc21)NS(=O)(=O)c1ccc(C)cc1"
Output line: true (1)

Input line: // return assay outcome for CN(C)c1ccc(NC(=O)c2cccc(N3C(=O)C4C5C=CC(C5)C4C3=O)c2)cc1 (stereo unspecified)
Output line: false (0)

Input line: // return assay outcome for "Cc1ccccc1OCC(=O)NC(=S)Nc1ccc(Br)c(C)n1"
Output line: false (0)

Input line: // return assay outcome for "C=CCOc1ccc(CNC(C)(C)CO)cc1OCC"
Output line: false (0)

Input line: // return assay outcome for COc1cccc(N2C(=O)C(CC(=O)Nc3ccccc3)N(C3CCCCC3)C2=O)c1 (stereo unspecified)
Output line: true (1)

Input line: // return assay outcome for "Cc1ccccc1CSc1nnc(-c2cccs2)n1Cc1ccco1"
Output line: true (1)

Input line: // return assay outcome for "CC(=O)c1cccc(NC(=O)Oc2ccccc2)c1"
Output line: false (0)

Input line: // return assay outcome for "CC(=O)c1ccc(-n2c(CCC(=O)O)ccc2-c2cccs2)cc1"
Output line: false (0)

Input line: // return assay outcome for "CCCNc1nc(NCC)nc(OC)n1"
Output line: false (0)

Input line: // return assay outcome for "CC(C)(C)c1ccc(S(=O)(=O)/C=C\C#N)cc1"
Output line: true (1)

Input line: // return assay outcome for "O=C1NCN(c2ccccc2)C12CCN(CCCC(c1ccc(F)cc1)c1ccc(F)cc1)CC2"
Output line: false (0)

Input line: // return assay outcome for "COc1cccc(-c2nccc(N(C)Cc3ccco3)n2)c1"
Output line: true (1)

Input line: // return assay outcome for "COc1ccc(-c2nc3cnc(N4CCN(C)CC4)nc3n(Cc3cccs3)c2=O)cc1"
Output line: false (0)

Input line: // return assay outcome for "CN(Cc1ccco1)c1ccnc(-c2ccoc2)n1"
Output line: false (0)

Input line: // return assay outcome for "CCCCC#Cc1nc(NC)c2ncn([C@@H]3O[C@@H](CO)[C@H](O)[C@H]3O)c2n1"
Output line: false (0)

Input line: // return assay outcome for "Cc1cccc(Oc2coc3cc(OC(=O)c4cccs4)ccc3c2=O)c1"
Output line: true (1)

Input line: // return assay outcome for "O=C(CNS(=O)(=O)c1ccc(Br)s1)N1CCC(N2CCCCC2)CC1"
Output line: false (0)

Input line: // return assay outcome for "Cc1cccc(NC(=O)c2onc3c2CCCC3)c1C"
Output line: false (0)

Input line: // return assay outcome for CCC(C)NC(=O)CCS(=O)(=O)c1ccc(Br)s1 (stereo unspecified)
Output line: true (1)

Input line: // return assay outcome for "CN(C)/C=N/c1ncc(C(=O)c2ccc3ccccc3c2)s1"
Output line: false (0)

Input line: // return assay outcome for "COc1ccc(-n2c(C)n[nH]c2=O)cc1"
Output line: false (0)

###

biological target: Cytochrome P450 3A4 (Homo sapiens) (UniProt P08684); experiment: Cytochrome panel assay with activity outcomes; conditions: recombinant CYP, pro-luciferin dealkylation, luminescence, p450-cyp3a4; series mostly up to 57.1 µM
Sequence (P08684 whole entry, looked up): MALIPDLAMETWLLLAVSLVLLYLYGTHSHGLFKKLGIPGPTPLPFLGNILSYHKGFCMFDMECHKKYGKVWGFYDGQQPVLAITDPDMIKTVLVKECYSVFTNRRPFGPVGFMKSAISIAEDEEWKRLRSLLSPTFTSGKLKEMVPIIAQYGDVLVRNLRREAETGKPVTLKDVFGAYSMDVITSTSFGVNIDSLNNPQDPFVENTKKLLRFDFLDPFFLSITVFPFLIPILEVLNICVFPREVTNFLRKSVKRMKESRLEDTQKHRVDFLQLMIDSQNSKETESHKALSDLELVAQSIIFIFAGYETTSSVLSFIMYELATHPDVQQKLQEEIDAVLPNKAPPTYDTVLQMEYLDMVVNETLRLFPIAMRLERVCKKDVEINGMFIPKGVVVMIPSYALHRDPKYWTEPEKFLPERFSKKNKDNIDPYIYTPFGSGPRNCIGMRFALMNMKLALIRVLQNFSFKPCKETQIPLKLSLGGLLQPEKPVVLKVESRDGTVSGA
In all, about 16,000 compounds went through this assay and about 5,100 (32%) were called active. Inconclusive results (about 25%) are left out. The list shows a part of the results.
parameter_measured: AC50

Consider the following illustrative entries.
| compound | AC50 |
| --- | --- |
| CC(C)CN1CC2(CCN(C(=O)c3cccc(F)c3)CC2)C1 | inactive |
| O=C(O)Cn1c(-c2ccccc2)nc2ccccc21 | inactive |
| C[C@@H](C(=O)NCCc1c[nH]c2ccccc12)[C@@H]1C[C@@]1(C)[C@@H](NC(=O)OCc1ccccc1)c1ccccc1 | 3.16 µM (active) |
| c1ccc(-c2nnc(SCc3nc4ccccc4[nH]3)n2Cc2ccco2)cc1 | 2 µM (active) |
| CC(=O)N1CCC2(CCN(Cc3nccs3)CC2)CC1 | inactive |

Input line: For the compound "CC1(C)c2ssc(=S)c2-c2ccccc2N1C(=O)CSC1=NCCS1" , what AC50 is on record?
Output line: 1.78 µM (active)

Input line: For the compound "O=C(CCc1nc(-c2ccccc2)no1)NCCc1ccccc1" , what AC50 is on record?
Output line: inactive

Input line: For the compound "N#Cc1cccc(-c2cc(NCc3cccnc3)ncn2)c1" , what AC50 is on record?
Output line: 2.51 µM (active)

Input line: For the compound "CN1CCN(c2ncc3nc(-c4cc(F)cc(F)c4)c(=O)n(CCc4ccccc4)c3n2)CC1" , what AC50 is on record?
Output line: 25.1 µM (active)

Input line: For the compound "CC(C)CN1CCC2(CC1)CCN(C(=O)c1cccc(F)c1)CC2" , what AC50 is on record?
Output line: inactive

Input line: For the compound "O=C(Nc1ccc(F)cc1)c1ccc(-n2ccnc2)nc1" , what AC50 is on record?
Output line: 0.126 µM (active)

Input line: For the compound "COc1cccc(Cn2c(=O)c(-c3ccccc3)nc3cnc(N4CCNCC4)nc32)c1" , what AC50 is on record?
Output line: 20 µM (active)

Input line: For the compound OC(COc1ccc(OCC(O)CN2CCCCCC2)cc1)CN1CCCCCC1 (stereo not drawn) , what AC50 is on record?
Output line: inactive

Input line: For the compound "Cc1c(Cl)cccc1NC(=O)c1ccc(-n2ccnc2)nc1" , what AC50 is on record?
Output line: 0.0398 µM (active)

Input line: For the compound "O=C(c1cccc(F)c1)N1CCC2(CC1)CN(Cc1ccccc1)C2" , what AC50 is on record?
Output line: inactive

Input line: For the compound N/C(=N\O)C1COc2ccccc2O1 (stereo not drawn) , what AC50 is on record?
Output line: inactive

Input line: For the compound "c1ccc(SCc2nc3ccccc3[nH]2)cc1" , what AC50 is on record?
Output line: 12.6 µM (active)

Input line: For the compound "O=C(c1cccc(F)c1)N1CCC[C@@]2(CCN(Cc3nccs3)C2)C1" , what AC50 is on record?
Output line: 7.94 µM (active)
